Data credit: PubChem BioAssay AID624255

- Method Description: T. cruzi intracellular proliferation inhibitors, primary screen, cell-based, beta-gal Tulahuen parasites, NIH3T3 host, luminescence (AID 624255)
- Particulars: T. cruzi beta-gal in NIH3T3, GalScreen luminescence, 90 h; at 8.34 µM
Hit rate of the full screen: of about 77,000 compounds, about 4,600 (6%) were called active. Inconclusive results (about 1%) are left out.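 The calls were made as follows: active = mean inhibition above about 93%, with at least 55% of replicates each passing it (limit read from the data, passing the limit was not always enough); inconclusive = only one of those two conditions holds; inactive = neither condition holds.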 What follows is part of a selection rich in actives, with near analogues and random picks from the rest.
Can you answer with just one of these options? Yes = active, No = inactive

Recorded results for 2 molecules are shown here.
COc1cccc(S(=O)(=O)N2CCCCN3[C@H](C2)[C@@H](c2ccc(C4=CCCCC4)cc2)[C@@H]3CO)c1 :: No
COc1ccc(C#Cc2ccc([C@H]3[C@@H](CO)N4CCCCN(S(=O)(=O)c5cn(C)cn5)C[C@H]34)cc2)cc1 :: No

Query :: What did this assay record as the result for "COc1ccc(S(=O)(=O)N2CCCCN3[C@H](CO)[C@@H](c4ccc(C#CC(C)C)cc4)[C@H]3C2)cc1" ?
Result :: Yes

Query :: What did this assay record as the result for "COc1cccc(S(=O)(=O)N2CCCCN3[C@H](C2)[C@H](c2ccc(C#CC(C)C)cc2)[C@@H]3CO)c1" ?
Result :: Yes

Query :: What did this assay record as the result for "O=C(Nc1ccccc1F)N1C[C@@H]2[C@H](c3ccccc31)[C@@H](CO)N2C(=O)Nc1ccccc1" ?
Result :: No

Query :: What did this assay record as the result for "COc1cccc(S(=O)(=O)N2CCCCN3[C@H](CO)[C@H](c4ccc(-c5ccncc5)cc4)[C@H]3C2)c1" ?
Result :: Yes

Query :: What did this assay record as the result for "Cc1cccc(S(=O)(=O)N2CCCCN3[C@@H](CO)[C@H](c4ccc(-c5cccnc5)cc4)[C@@H]3C2)c1" ?
Result :: No

Query :: What did this assay record as the result for "CCC(=O)Nc1ccc2c(c1)C(=O)N(C)[C@H]1CC[C@H](CC(=O)NC3Cc4ccccc4C3)O[C@H]1CO2" ?
Result :: No

* * *

- Method Description: T. cruzi intracellular proliferation inhibitors, primary screen, cell-based, beta-gal Tulahuen parasites, NIH3T3 host, luminescence (AID 624255)
- Particulars: T. cruzi beta-gal in NIH3T3, GalScreen luminescence, 90 h; at 8.34 µM; active compounds read high
Out of some 77,000 compounds screened, about 4,600 (6%) were called active. Inconclusive results (about 1%) are left out. This is one part of a sample in which actives are shown more often than they occur.
Would you kindly list inhibition for each of these molecules?
Answers are plain numbers, in %.

Sample records with inhibition:
COc1ccc(S(=O)(=O)Nc2ccc3c(c2)C(=O)N([C@@H](C)CO)C[C@H](C)[C@@H](CN(C)Cc2ccc(C(F)(F)F)cc2)O3)cc1 :: 105
COc1ccc(S(=O)(=O)Nc2ccc3c(c2)C(=O)N([C@@H](C)CO)C[C@H](C)[C@H](CN(C)Cc2ccc(C(=O)O)cc2)O3)cc1 :: -6.07
CN1c2ccc(-c3ccccc3)cc2[C@@H]2[C@@H](CCN2C(=O)c2ccccc2)[C@H]1CO :: 62.4
CN1c2ccc(-c3ccccc3)cc2[C@@H]2[C@@H](CCN2C(=O)c2ccncc2)[C@@H]1CO :: 103
CN1c2ccc(-c3ccccc3)cc2[C@@H]2[C@@H](CCN2C(=O)c2ccccc2F)[C@@H]1CO :: 83.7

Batch of 2 molecules: report inhibition for each.
1. COc1ccc(-c2ccc3c(c2)[C@@H]2[C@@H](CCN2C(=O)Cc2ccccn2)[C@H](CO)N3C)cc1
2. COc1ccc(CN(C)C[C@@H]2Oc3ccc(NS(=O)(=O)c4ccc(OC)cc4)cc3C(=O)N([C@H](C)CO)C[C@H]2C)cc1

Result ::
[90.9, 0.955]

* * *

- Method Description: T. cruzi intracellular proliferation inhibitors, primary screen, cell-based, beta-gal Tulahuen parasites, NIH3T3 host, luminescence (AID 624255)
- Particulars: T. cruzi beta-gal in NIH3T3, GalScreen luminescence, 90 h; at 8.34 µM; active compounds read high
Out of some 77,000 compounds screened, about 4,600 (6%) were called active. About 1% were inconclusive and are not listed. The sample holds actives, similar compounds and a random draw of the others, so the mix is not that of the screen.
I would appreciate it if you labelled entries fulfilled when inhibition is 40% or higher, otherwise not fulfilled.

Query :: Does inhibition meet or surpass 40% for "O=C(C[C@@H]1C[C@@H]2c3cc(NC(=O)c4ccc5c(c4)OCO5)ccc3O[C@@H]2[C@@H](CO)O1)NCc1ccc(Cl)cc1" ?
Result :: fulfilled

Query :: Does inhibition meet or surpass 40% for "CCCNC(=O)C[C@H]1C[C@@H]2c3cc(NS(=O)(=O)c4cccc(OC)c4)ccc3O[C@@H]2[C@@H](CO)O1" ?
Result :: not fulfilled

Query :: Does inhibition meet or surpass 40% for "O=C(C[C@@H]1C[C@H]2c3cc(NC(=O)C4CCC4)ccc3O[C@H]2[C@@H](CO)O1)NCc1ccc2c(c1)OCO2" ?
Result :: fulfilled

Query :: Does inhibition meet or surpass 40% for "O=C(Nc1ccc2c(c1)[C@@H]1C[C@H](CC(=O)N3CCOCC3)O[C@@H](CO)[C@@H]1O2)c1ccc2c(c1)OCO2" ?
Result :: fulfilled

Query :: Does inhibition meet or surpass 40% for "CN1CCN(C(=O)C[C@@H]2C[C@@H]3c4cc(NC(=O)c5ccc6c(c5)OCO6)ccc4O[C@@H]3[C@H](CO)O2)CC1" ?
Result :: not fulfilled

Query :: Does inhibition meet or surpass 40% for "CN(C)C(=O)C[C@@H]1C[C@@H]2c3cc(NC(=O)c4ccc5c(c4)OCO5)ccc3O[C@@H]2[C@H](CO)O1" ?
Result :: not fulfilled

* * *

- Method Description: T. cruzi intracellular proliferation inhibitors, primary screen, cell-based, beta-gal Tulahuen parasites, NIH3T3 host, luminescence (AID 624255)
- Particulars: T. cruzi beta-gal in NIH3T3, GalScreen luminescence, 90 h; at 8.34 µM; active compounds read high
Hit rate of the full screen: of about 77,000 compounds, about 4,600 (6%) were called active. About 1% were inconclusive and are not listed. Shown is part of a subset that was picked to be rich in actives.
Measurement Type: inhibition (%)
Numbers only, in %.

Sample records with inhibition:
COc1ccccc1C#Cc1cnc2c(c1)C(=O)N([C@@H](C)CO)C[C@@H](C)[C@H](CN(C)C(=O)CN(C)C)O2 :: 36.2
COc1ccccc1C#Cc1cnc2c(c1)C(=O)N([C@@H](C)CO)C[C@@H](C)[C@@H](CN(C)C(=O)CN(C)C)O2 :: -91.1
CCCC#Cc1cnc2c(c1)C(=O)N([C@H](C)CO)C[C@H](C)[C@H](CN(C)C(=O)Cc1ccncc1)O2 :: -5.16
C[C@@H]1CN([C@H](C)CO)C(=O)c2cc(C#CCN(C)C)cnc2O[C@H]1CN(C)C(=O)Cc1ccncc1 :: 67.2
C[C@@H]1CN([C@@H](C)CO)C(=O)CCCn2cc(nn2)CO[C@@H]1CN(C)S(=O)(=O)c1cccc(F)c1 :: -8.28
COc1ccc(C#Cc2cnc3c(c2)C(=O)N([C@@H](C)CO)C[C@H](C)[C@@H](CN(C)C(C)=O)O3)cc1 :: 110
O=C(Nc1ccc(F)cc1)N[C@H]1CC[C@H](CCn2cc(-c3ccc(F)cc3)nn2)O[C@@H]1CO :: -16.9

As a next step, examine the compound that follows.
Query :: Consider the compound "C[C@@H]1CN([C@@H](C)CO)C(=O)c2cc(C#Cc3ccccc3)cnc2O[C@H]1CN(C)C(=O)c1ccccn1" and give its recorded inhibition.
Result :: 108

* * *

- Method Description: T. cruzi intracellular proliferation inhibitors, primary screen, cell-based, beta-gal Tulahuen parasites, NIH3T3 host, luminescence (AID 624255)
- Particulars: T. cruzi beta-gal in NIH3T3, GalScreen luminescence, 90 h; at 8.34 µM; active compounds read high
About 4,600 (6%) of roughly 77,000 compounds were called active. About 1% were inconclusive and are not listed. Shown is part of a subset that was picked to be rich in actives.
I would appreciate it if you labelled entries 1 (yes) when inhibition is 50% or higher, otherwise 0 (no).

Recorded results for 3 compounds are shown here.
COc1ccc(CN(C)C[C@H]2OCCCC[C@@H](C)Oc3ccc(NC(=O)Nc4cccc5ccccc45)cc3C(=O)N([C@H](C)CO)C[C@@H]2C)cc1 :: 1 (yes)
COc1ccc(S(=O)(=O)N2CC[C@H]3[C@@H](CO)N(C)c4ccc(C#Cc5ccccc5OC)cc4[C@H]32)cc1 :: 1 (yes)
O=C(C[C@@H]1C[C@@H]2c3cc(NC(=O)NC4CCCC4)ccc3O[C@@H]2[C@@H](CO)O1)NCc1ccccc1 :: 1 (yes)

Query :: Does inhibition meet or surpass 50% for "CN1[C@@H]2CN(C(=O)c3ccc(F)cc3)c3ccccc3[C@@H]2[C@@H]1CO" ?
Result :: 0 (no)

Query :: Does inhibition meet or surpass 50% for "CCCNC(=O)C[C@H]1CC[C@H]2[C@@H](COC[C@H](O)CN2C(=O)Nc2c(C)noc2C)O1" ?
Result :: 0 (no)

Query :: Does inhibition meet or surpass 50% for "C[C@@H]1CCCCO[C@@H](CN(C)CC2CC2)[C@@H](C)CN([C@H](C)CO)C(=O)c2cc(NC(=O)Nc3cccc4ccccc34)ccc2O1" ?
Result :: 1 (yes)

Query :: Does inhibition meet or surpass 50% for "C[C@@H]1CCCCO[C@@H](CN(C)S(C)(=O)=O)[C@@H](C)CN([C@@H](C)CO)C(=O)c2cc(NS(=O)(=O)c3ccc(Cl)cc3)ccc2O1" ?
Result :: 0 (no)
